readout-type: melting point

Worked set:
# compound, melting point
rows = [
    ("O=Cc1cnn(Cc2ccccc2)c1", "43 to 45 °C"),
    ("COc1ccc(CC(=O)NO)cc1", "159 to 161 °C"),
    ("O=C(O)c1cc(OCC2CC2)c2ccccc2n1", "164 to 166 °C"),
    ("NS(=O)(=O)c1cccc(NC(=O)CCl)c1", "162 to 171 °C"),
    ("O=C(O)CSc1nccn1-c1ccc(C(F)(F)F)cc1", "119 to 121 °C"),
    ("O=c1[nH]nc(-c2ccc(Cl)c(Cl)c2)c2ccccc12", "274 to 276 °C"),
]

# ---- query compound ----
Fill in the blank: the reported melting point of NC(=O)C1CNc2ccccc21 (stereo not drawn) is ____.
150 to 152 °C
